experimental protocol: total protein half-life in vivo (active degradation + dilution); higher = more stable protein
details: wild type E. coli NCM3722; growth: P-lim chemostat; doubling time 12 h
outcome measure: total protein half-life in vivo (h)
Numbers only, in h.

monomer_sequence=MSSNTFTLGTKSVNRLGYGAMQLAGPGVFGPPRDRHVAITVLREALALGVNHIDTSDFYGPHVTNQIIREALYPYSDDLTIVTKIGARRGEDASWLPAFSPAELQKAVHDNLRNLGLDVLDVVNLRVMMGDGHGPAEGSIEASLTVLAEMQQQGLVKHIGLSNVTPTQVAEARKIAEIVCVQNEYNIAHRADDAMIDALAHDGIAYVPFFPLGGFTPLQSSTLSDVAASLGATPMQVALAWLLQRSPNILLIPGTSSVAHLRENMAAEKLHLSEEVLSTLDGISRE value_units=h measured=12.2

Report total protein half-life in vivo for every entry below.
1. MPSIRLADLAQQLDAELHGDGDIVITGVASMQSAQTGHITFMVNPKYREHLGLCQASAVVMTQDDLPFAKSAALVVKNPYLTYARMAQILDTTPQPAQNIAPSAVIDATAKLGNNVSIGANAVIESGVELGDNVIIGAGCFVGKNSKIGAGSRLWANVTIYHEIQIGQNCLIQSGTVVGADGFGYANDRGNWVKIPQIGRVIIGDRVEIGACTTIDRGALDDTIIGNGVIIDNQCQIAHNVVIGDNTAVAGGVIMAGSLKIGRYCMIGGASVINGHMEICDKVTVTGMGMVMRPITEPGVYSSGIPLQPNKVWRKTAALVMNIDDMSKRLKSLERKVNQQD
2. MYKTIIMPVDVFEMELSDKAVRHAEFLAQDDGVIHLLHVLPGSASLSLHRFAADVRRFEEHLQHEAQERLQTMVSHFTIDPSRIKQHVRFGSVRDEVNELAEELGADVVVIGSRNPSISTHLLGSNASSVIRHANLPVLVVR
3. MKALSPIAVLISALLLQGCVAAAVVGTAAVGTKAATDPRSVGTQVDDGTLEVRVNSALSKDEQIKKEARINVTAYQGKVLLVGQSPNAELSARAKQIAMGVDGANEVYNEIRQGQPIGLGEASNDTWITTKVRSQLLTSDLVKSSNVKVTTENGEVFLMGLVTEREAKAAADIASRVSGVKRVTTAFTFIK

Out:
12.7
10.7
12.3

----------
experimental protocol: total protein half-life in vivo (active degradation + dilution); higher = more stable protein
details: wild type E. coli NCM3722; growth: C-lim chemostat; doubling time 3 h
outcome measure: total protein half-life in vivo (h)
One number for each entry, in h.

Would you mind giving total protein half-life in vivo for every sequence in the list below?
1. MLDQVCQLARNAGDAIMQVYDGTKPMDVVSKADNSPVTAADIAAHTVIMDGLRTLTPDVPVLSEEDPPGWEVRQHWQRYWLVDPLDGTKEFIKRNGEFTVNIALIDHGKPILGVVYAPVMNVMYSAAEGKAWKEECGVRKQIQVRDARPPLVVISRSHADAELKEYLQQLGEHQTTSIGSSLKFCLVAEGQAQLYPRFGPTNIWDTAAGHAVAAAAGAHVHDWQGKPLDYTPRESFLNPGFRVSIY
2. MKIGIIGAMEEEVTLLRDKIENRQTISLGGCEIYTGQLNGTEVALLKSGIGKVAAALGATLLLEHCKPDVIINTGSAGGLAPTLKVGDIVVSDEARYHDADVTAFGYEYGQLPGCPAGFKADDKLIAAAEACIAELNLNAVRGLIVSGDAFINGSVGLAKIRHNFPQAIAVEMEATAIAHVCHNFNVPFVVVRAISDVADQQSHLSFDEFLAVAAKQSSLMVESLVQKLAHG [P0AF12]
3. MKRMIALDGAQGEGGGQILRSALSLSMITGQPFTITSIRAGRAKPGLLRQHLTAVKAATEICGATVEGAELGSQRLLFRPGTVRGGDYRFAIGSAGSCTLVLQTVLPALWFADGPSRVEVSGGTDNPSAPPADFIRRVLEPLLAKIGIHQQTTLLRHGFYPAGGGVVATEVSPVASFNTLQLGERGNIVQMRGEVLLAGVPRHVAEREIATLAGSFSLHEQNIHNLPRDQGPGNTVSLEVESENITERFFVVGEKRVSAEVVAAQLVKEVKRYLASTAAVGEYLADQLVLPMALAGAGEFTVAHPSCHLLTNIAVVERFLPVRFSLIETDGVTRVSIE

Out:
2.97
3.27
2.59

----------
experimental protocol: total protein half-life in vivo (active degradation + dilution); higher = more stable protein
details: E. coli NCM3722 delta-lon; growth: N-lim chemostat; doubling time 6 h
Field: total protein half-life in vivo. Provide a value for each of the sequences that follow.
Numbers only, in h.

Illustrative cases are given below, each with its answer.
monomer_sequence="MIDDDGYRPNVGIVICNRQGQVMWARRFGQHSWQFPQGGINPGESAEQAMYRELFEEVGLSRKDVRILASTRNWLRYKLPKRLVRWDTKPVCIGQKQKWFLLQLVSGDAEINMQTSSTPEFDGWRWVSYWYPVRQVVSFKRDVYRRVMKEFASVVMSLQENTPKPQNASAYRRKRG [P0A776]" outcome_measure="total protein half-life in vivo" value_units=h measured=6.4
monomer_sequence="MIKSALLVLEDGTQFHGRAIGATGSAVGEVVFNTSMTGYQEILTDPSYSRQIVTLTYPHIGNVGTNDADEESSQVHAQGLVIRDLPLIASNFRNTEDLSSYLKRHNIVAIADIDTRKLTRLLREKGAQNGCIIAGDNPDAALALEKARAFPGLNGMDLAKEVTTAEAYSWTQGSWTLTGGLPEAKKEDELPFHVVAYDFGAKRNILRMLVDRGCRLTIVPAQTSAEDVLKMNPDGIFLSNGPGDPAPCDYAITAIQKFLETDIPVFGICLGHQLLALASGAKTVKMKFGHHGGNHPVKDVEKNVVMITAQNHGFAVDEATLPANLRVTHKSLFDGTLQGIHRTDKPAFSFQGHPEASPGPHDAAPLFDHFIELIEQYRKTAK [P0A6F1]" outcome_measure="total protein half-life in vivo" value_units=h measured=5.36
monomer_sequence="MDLIYFLIDFILHIDVHLAELVAEYGVWVYAILFLILFCETGLVVTPFLPGDSLLFVAGALASLETNDLNVHMMVVLMLIAAIVGDAVNYTIGRLFGEKLFSNPNSKIFRRSYLDKTHQFYEKHGGKTIILARFVPIVRTFAPFVAGMGHMSYRHFAAYNVIGALLWVLLFTYAGYFFGTIPMVQDNLKLLIVGIIVVSILPGVIEIIRHKRAAARAAK [P0ABP6]" outcome_measure="total protein half-life in vivo" value_units=h measured=3.15
monomer_sequence="MRKIALILAMLLIPCVSFAGLLGSSSSTTPVSKEYKQQLMGSPVYIQIFKEERTLDLYVKMGEQYQLLDSYKICKYSGGLGPKQRQGDFKSPEGFYSVQRNQLKPDSRYYKAINIGFPNAYDRAHGYEGKYLMIHGDCVSIGCYAMTNQGIDEIFQFVTGALVFGQPSVQVSIYPFRMTDANMKRHKYSNFKDFWEQLKPGYDYFEQTRKPPTVSVVNGRYVVSKPLSHEVVQPQLASNYTLPEAK [P0AA99]" outcome_measure="total protein half-life in vivo" value_units=h measured=0.64
monomer_sequence="MDIVFIEQLSVITTIGVYDWEQTIEQKLVFDIEMAWDNRKAAKSDDVADCLSYADIAETVVSHVEGARFALVERVAEEVAELLLARFNSPWVRIKLSKPGAVARAANVGVIIERGNNLKENN [P0AC16]" outcome_measure="total protein half-life in vivo" value_units=h measured=5.47

Input MKKTAIAIAVALAGFATVAQAAPKDNTWYTGAKLGWSQYHDTGFINNNGPTHENQLGAGAFGGYQVNPYVGFEMGYDWLGRMPYKGSVENGAYKAQGVQLTAKLGYPITDDLDIYTRLGGMVWRADTKSNVYGKNHDTGVSPVFAGGVEYAITPEIATRLEYQWTNNIGDAHTIGTRPDNGMLSLGVSYRFGQGEAAPVVAPAPAPAPEVQTKHFTLKSDVLFNFNKATLKPEGQAALDQLYSQLSNLDPKDGSVVVLGYTDRIGSDAYNQGLSERRAQSVVDYLISKGIPADKISARGMGESNPVTGNTCDNVKQRAALIDCLAPDRRVEIEVKGIKDVVTQPQA [P0A910] . Output total protein half-life in vivo: 7.03

----------
experimental protocol: total protein half-life in vivo (active degradation + dilution); higher = more stable protein
details: wild type E. coli NCM3722; growth: N-lim chemostat; doubling time 12 h
Exercise: for every item that follows, state its recorded total protein half-life in vivo.
Numbers only, in h.

monomer_sequence=MADITLISGSTLGGAEYVAEHLAEKLEEAGFTTETLHGPLLEDLPASGIWLVISSTHGAGDIPDNLSPFYEALQEQKPDLSAVRFGAIGIGSREYDTFCGAIDKLEAELKNSGAKQTGETLKINILDHDIPEDPAEEWLGSWVNLLK measured=3.68

Shifting focus to the sequence that follows.
total protein half-life in vivo for MTKLKLLALGVLIATSAGVAHAEGKFSLGAGVGVVEHPYKDYDTDVYPVPVINYEGDNFWFRGLGGGYYLWNDATDKLSITAYWSPLYFKAKDSGDHQMRHLDDRKSTMMAGLSYAHFTQYGYLRTTLAGDTLDNSNGIVWDMAWLYRYTNGGLTVTPGIGVQWNSENQNEYYYGVSRKESARSGLRGYNPNDSWSPYLELSASYNFLGDWSVYGTARYTRLSDEVTDSPMVDKSWTGLISTGITYKF [P0A908] is 14
